B1: Nuclear receptor subfamily 4 group A member 2, residues 260 to 336; numbered along this chain, P43354 (parent)
chain: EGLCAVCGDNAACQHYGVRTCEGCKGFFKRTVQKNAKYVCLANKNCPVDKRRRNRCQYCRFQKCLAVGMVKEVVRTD

# Variants of: B1
# Measurement notes: abundance fitness (aPCA) (normalised: wild type 0, dead -1); higher = more abundant; growth selection in yeast, the domain comes from the species named
# Condition: Homo sapiens
Here the recorded abundance fitness is given for each entry.

Solved cases below.
- Y16K: -0.185
- K71D: -0.296
- V39G: -0.616
- C46V: -0.851
- K25Y: -0.503
- H15E: -0.106
- R52Y: 0.204
- C59R: -1.17

Ask: Return the recorded abundance fitness value; entry: T76M
Result: -0.166

Ask: Return the recorded abundance fitness value; entry: L65T
Result: -0.659

Ask: Return the recorded abundance fitness value; entry: C46R
Result: -1.07

Ask: Return the recorded abundance fitness value; entry: Q57R
Result: -0.289
